TESTED TARGET: TLR9 (Homo sapiens)
Construct: Fresh blood was collected from normal human donors; endogenous in cells
ASSAY COMMENT: huPBMC TLR9 Antagonist IFNα Assay
CONDITIONS: human PBMCs stimulated with ODN2216 0.3 μM, 14-16 hrs; IFNα2b AlphaLISA read-out
pIC50: −log10 of the molar value.
MEASURED QUANTITY: pIC50

The cases that follow already have their pIC50 on record.
| MOLECULE | pIC50 |
| --- | --- |
| Cc1nn(CC23CCC(N)(CC2)CC3)c2c1CN(c1nc(Cl)nc3cnn(C)c13)CC2 [compound 15] | 5.90 |
| Cc1cc(N2CCc3c(c(C)nn3CC34CCC(NC5COC5)(CC3)CC4)C2)c2cnn(C)c2n1 [Compound No. 6] | 5.86 |
| Cc1cc(N2CCc3c(c(C)nn3CC34CCC(N5C[C@@H](C)O[C@@H](C)C5)(CC3)CC4)C2)c2cnn(C)c2n1 [compound 110] | 5.72 |

(I) Cc1nc(N2CCc3c(c(C)nn3CC34CCC(NCC5(CO)COC5)(CC3)CC4)C2)c2c(n1)c(C)nn2C [compound 31]
(II) Cc1cc(N2CCc3c(c(C)nn3CC34CCC(NC(=O)C5CNCCO5)(CC3)CC4)C2)c2cnn(C)c2n1 (stereo not shown) [compound 125]
Challenge: Consider entries I and II . Which has the numerically lower pIC50? Provide the label of your selected option as the answer.
Response given: I
(I: 5.63, II: 6.04)

(a) Cc1cc(N2CCc3c(c(C)nn3CC34CCC(NCC5(CO)COC5)(CC3)CC4)C2)c2cnn(C)c2n1 [compound 137]
(b) Cc1cc(N2CCc3c(c(C)nn3CC34CCC(NC(=O)OC5(C)CC5)(CC3)CC4)C2)c2cnn(C)c2n1 [Compound No. 51]
Challenge: Consider entries a and b . Which has the numerically lower pIC50? Provide the label of your selected option as the answer.
Response given: b

----------
TESTED TARGET: TLR8 (Homo sapiens, UniProt Q9NR97)
ASSAY COMMENT: huPBMC TLR8 Antagonist IL-6 TR-FRET Assay
Assay type: cell-based
Parameters: Fresh blood was collected from normal human donors; endogenous in cells; host or cells: human PBMCs from fresh donor blood
CONDITIONS: human PBMCs stimulated with ssRNA40 1 μg/ml (DOTAP), 14-16 hrs; IL-6 TR-FRET read-out
MEASURED QUANTITY: IC50 (nM)

The cases that follow already have their IC50 on record.
| STRUCTURE AS SMILES | MEASUREMENT UNIT | IC50 |
| --- | --- | --- |
| Cc1cc(N2CCc3c(c(C)nn3CC34CCC(N5CC6(COC6)C5)(CC3)CC4)C2)c2cnn(C)c2n1 | nM | 68 |
| Cc1cc(N2Cc3cnn(CC45CCC(N)(CC4)CC5)c3C(C)(C)C2)c2cnn(C)c2n1 | nM | 277 |
| Cc1cc(N2CCc3c(c(C)nn3CC34CCC(N5C[C@H](O)[C@@H](O)C5)(CC3)CC4)C2)c2cnn(C)c2n1 | nM | 466 |

(a) Cc1nc(N2CCc3c(c(C)nn3CC34CCC(N5CCCC5)(CC3)CC4)C2)c2cn[nH]c2n1
(b) CCOCCN(CCOCC)C12CCC(Cn3nc(C)c4c3CCN(c3cc(C)nc5c3cnn5C)C4)(CC1)CC2
Challenge: Consider entries a and b . Which has the numerically lower IC50? Provide the label of your selected option as the answer.
Response given: b
(b: 102 nM, a: 324 nM)

----------
TESTED TARGET: TLR9 (Homo sapiens, UniProt Q9NR96)
Construct: Fresh blood was collected from normal human donors; endogenous in cells
Sequence (Q9NR96 26-1032): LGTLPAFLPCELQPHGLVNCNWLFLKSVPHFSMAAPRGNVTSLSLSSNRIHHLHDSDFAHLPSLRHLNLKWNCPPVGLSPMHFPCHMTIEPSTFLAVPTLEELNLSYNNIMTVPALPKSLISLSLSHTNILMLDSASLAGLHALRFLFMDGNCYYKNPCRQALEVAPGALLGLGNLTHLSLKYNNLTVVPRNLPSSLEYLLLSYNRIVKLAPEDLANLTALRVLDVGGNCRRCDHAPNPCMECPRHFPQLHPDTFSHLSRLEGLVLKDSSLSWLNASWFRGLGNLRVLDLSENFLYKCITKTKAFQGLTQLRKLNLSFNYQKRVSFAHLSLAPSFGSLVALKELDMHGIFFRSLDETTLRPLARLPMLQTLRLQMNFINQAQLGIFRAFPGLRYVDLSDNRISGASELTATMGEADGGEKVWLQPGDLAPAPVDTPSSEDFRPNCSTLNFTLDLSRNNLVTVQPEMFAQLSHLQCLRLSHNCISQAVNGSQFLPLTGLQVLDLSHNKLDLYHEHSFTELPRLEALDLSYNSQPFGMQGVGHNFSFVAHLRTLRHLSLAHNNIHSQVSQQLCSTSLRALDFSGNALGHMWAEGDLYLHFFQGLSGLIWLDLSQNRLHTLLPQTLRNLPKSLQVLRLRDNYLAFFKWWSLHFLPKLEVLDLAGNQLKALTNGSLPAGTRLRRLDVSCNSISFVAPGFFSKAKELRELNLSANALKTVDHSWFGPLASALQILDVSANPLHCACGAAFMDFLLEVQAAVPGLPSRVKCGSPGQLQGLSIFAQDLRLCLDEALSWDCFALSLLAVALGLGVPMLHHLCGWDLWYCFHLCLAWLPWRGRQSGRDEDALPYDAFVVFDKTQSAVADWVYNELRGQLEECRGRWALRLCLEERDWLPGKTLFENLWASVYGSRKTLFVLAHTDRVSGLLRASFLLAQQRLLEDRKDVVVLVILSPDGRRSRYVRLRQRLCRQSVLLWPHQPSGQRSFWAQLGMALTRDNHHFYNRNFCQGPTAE
ASSAY COMMENT: huPBMC TLR9 Antagonist IFNα Assay
CONDITIONS: human PBMCs stimulated with ODN2216 0.3 μM, 14-16 hrs; IFNα2b AlphaLISA read-out
pIC50: −log10 of the molar value.
MEASURED QUANTITY: pIC50

| COMPOUND | OBSERVED VALUE |
| --- | --- |
| CNC12CCC(Cn3nc(C)c4c3CCN(c3cc(C)nc5c3cnn5C)C4)(CC1)CC2 [Compound No. 50] | 6.42 |

(P) COc1ccc(Cn2ncc3c(N4CCc5c(c(C)nn5CC56CCC(N)(CC5)CC6)C4)cc(C)nc32)cc1 [Compound No. 53]
(Q) Cc1cc(N2CCc3c(c(C)nn3CC34CCC(N5C[C@H](O)[C@@H](O)C5)(CC3)CC4)C2)c2cnn(C)c2n1 [compound 80]
(R) Cc1cc(N2CCc3c(c(C)nn3CC34CCC(NC5CCC5)(CC3)CO4)C2)c2cnn(C)c2n1 [compound 143]
(S) Cc1cc(N2CCc3nn(CC45CC(N)(C4)C5)c(C)c3C2)c2cnn(C)c2n1 [compound 52]
(T) Cc1cc(N2CCc3c(c(C)nn3CC34CCC(NC5CCC5)(CC3)CC4)C2)c2cnn(C)c2n1 [compound 54]
Challenge: Reorder: pIC50, max to min. Answer format: list of labels, ordered as asked.
Response given: Q, T, R, P, S
(Q: 6.60, T: 6.31, R: 6.08, P: 5.76, S: 5.31)

----------
TESTED TARGET: TLR8 (Homo sapiens)
Sequence (Q9NR97 27-1041): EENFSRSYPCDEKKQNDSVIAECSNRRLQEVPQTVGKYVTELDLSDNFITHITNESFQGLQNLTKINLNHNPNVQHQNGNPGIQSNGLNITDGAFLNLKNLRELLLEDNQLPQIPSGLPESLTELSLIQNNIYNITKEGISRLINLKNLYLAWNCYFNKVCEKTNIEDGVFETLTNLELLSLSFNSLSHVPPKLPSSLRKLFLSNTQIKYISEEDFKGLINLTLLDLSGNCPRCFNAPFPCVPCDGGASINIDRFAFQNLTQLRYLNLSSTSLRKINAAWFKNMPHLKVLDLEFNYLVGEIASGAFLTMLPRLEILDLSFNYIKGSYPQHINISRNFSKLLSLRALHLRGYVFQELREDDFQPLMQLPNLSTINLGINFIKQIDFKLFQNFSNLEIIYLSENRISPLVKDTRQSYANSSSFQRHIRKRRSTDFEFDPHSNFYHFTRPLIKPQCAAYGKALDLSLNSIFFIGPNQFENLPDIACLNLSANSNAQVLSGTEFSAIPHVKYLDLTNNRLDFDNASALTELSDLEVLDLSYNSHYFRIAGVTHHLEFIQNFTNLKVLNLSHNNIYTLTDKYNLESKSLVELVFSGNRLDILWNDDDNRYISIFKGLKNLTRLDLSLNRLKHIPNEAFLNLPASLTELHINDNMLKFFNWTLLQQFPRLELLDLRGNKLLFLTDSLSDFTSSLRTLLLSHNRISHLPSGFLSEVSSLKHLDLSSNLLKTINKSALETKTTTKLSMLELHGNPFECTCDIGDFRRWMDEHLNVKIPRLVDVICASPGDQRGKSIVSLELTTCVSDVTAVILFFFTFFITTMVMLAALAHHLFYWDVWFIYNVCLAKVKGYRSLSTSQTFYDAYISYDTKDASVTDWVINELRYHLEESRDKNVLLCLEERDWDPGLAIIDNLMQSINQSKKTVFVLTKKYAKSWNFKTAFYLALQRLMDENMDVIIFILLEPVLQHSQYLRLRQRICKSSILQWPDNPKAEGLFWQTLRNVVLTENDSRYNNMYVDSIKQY
ASSAY COMMENT: huPBMC TLR8 Antagonist IL-6 TR-FRET Assay
Type: cell-based
Design: Fresh blood was collected from normal human donors; endogenous in cells; host or cells: human PBMCs from fresh donor blood
CONDITIONS: human PBMCs stimulated with ssRNA40 1 μg/ml (DOTAP), 14-16 hrs; IL-6 TR-FRET read-out
MEASURED QUANTITY: IC50 (nM)

The cases that follow already have their IC50 on record.
| COMPOUND | MEASUREMENT UNIT | OBSERVED VALUE |
| --- | --- | --- |
| Cc1cc(N2CCc3c(c(C)nn3CC34CCC(N)(CC3)CC4)C2)c2cnn(C)c2n1 | nM | 236 |
| CCNCCC(=O)NC12CCC(Cn3nc(C)c4c3CCN(c3cc(C)nc5c3cnn5C)C4)(CC1)CC2 | nM | 153 |
| Cc1cc(N2Cc3cn(CC45CCC(N)(CC4)CC5)nc3C(C)(C)C2)c2cnn(C)c2n1 | nM | 2360 |
| [2H]C([2H])([2H])N(C([2H])([2H])[2H])C12CCC(Cn3nc(C)c4c3CCN(c3nc(C)nc5c(C)nn(C)c35)C4)(CC1)CC2 | nM | 314 |
| Cc1cc(N2CCc3c(c(C)nn3CC34CCC(NC(=O)CN(C)S(C)(=O)=O)(CC3)CC4)C2)c2cnn(C)c2n1 | nM | 2790 |

(A) Cc1cc(N2CCc3c(c(C)nn3CC34CCC(N5CCOC[C@@H]5C)(CC3)CC4)C2)c2cnn(C)c2n1
(B) Cc1cc(N2CCc3c(c(C)nn3CC34CCC(NC(C)CO)(CC3)CC4)C2)c2cnn(C)c2n1 (stereo not drawn)
Challenge: When their IC50 values are compared, which is larger, A or B ? Provide the label of your selected option as the answer.
Response given: B
(B: 292 nM, A: 13 nM)

(1) COCCNC12CCC(Cn3nc(C)c4c3CCN(c3nc(C)nc5c(C)nn(C)c35)C4)(CC1)CC2
(2) Cc1nc(N2CCc3c(c(C)nn3CC34CCC(NC(=O)CCN(C)C)(CC3)CC4)C2)c2c(n1)c(C)nn2C
(3) Cc1cc(N2CCc3c(c(C)nn3CC34CCC(NC5COC5)(CC3)CC4)C2)c2cnn(C)c2n1
Challenge: Rank ascending by IC50. Answer format: list of labels, ordered as asked.
Response given: 2, 1, 3

(a) Cc1cc(N2CCc3c(c(C)nn3CC34CCC(N)(CC3)CC4)C2)c2ccncc2n1
(b) Cc1nc(N2CCc3c(c(C)nn3CC34CCC(N5CCOCC5)(CC3)CC4)C2)c2c(C)noc2n1
Challenge: Consider entries a and b . Which has the numerically lower IC50? Provide the label of your selected option as the answer.
Response given: a
